Values were extracted from patent US9938262B2.

- assayed target: follicle-stimulating hormone (FSH) receptor (Rattus norvegicus, UniProt P20395)
- Construct: endogenous in cells; host or cells: rat granulosa cells
- Sequence (P20395 18-692): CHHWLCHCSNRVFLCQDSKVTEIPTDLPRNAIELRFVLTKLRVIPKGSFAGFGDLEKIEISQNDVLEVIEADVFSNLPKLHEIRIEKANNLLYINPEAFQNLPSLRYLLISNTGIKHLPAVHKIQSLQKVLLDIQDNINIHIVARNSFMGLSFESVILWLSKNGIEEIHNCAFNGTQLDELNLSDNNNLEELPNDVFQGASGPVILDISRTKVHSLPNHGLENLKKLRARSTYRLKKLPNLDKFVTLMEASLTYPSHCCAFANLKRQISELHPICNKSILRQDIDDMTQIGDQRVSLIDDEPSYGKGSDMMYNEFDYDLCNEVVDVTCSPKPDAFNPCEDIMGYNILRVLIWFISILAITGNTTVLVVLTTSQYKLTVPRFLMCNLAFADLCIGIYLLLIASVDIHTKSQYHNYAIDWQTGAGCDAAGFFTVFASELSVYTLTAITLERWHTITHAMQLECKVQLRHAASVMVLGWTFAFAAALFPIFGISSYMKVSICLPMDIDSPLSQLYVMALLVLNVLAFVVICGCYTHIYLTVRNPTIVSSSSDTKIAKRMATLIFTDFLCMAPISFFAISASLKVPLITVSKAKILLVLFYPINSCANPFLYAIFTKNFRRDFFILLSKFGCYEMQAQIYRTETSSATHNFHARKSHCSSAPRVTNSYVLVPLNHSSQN
- assay remarks: Rat granulosa EC50 FSH (Assay B)
- Type: cell-based
- measurement parameters: rat granulosa cells; Table 1
measured quantity: EC50

Field: example entries. Status: answers known.
| compound | EC50 |
| --- | --- |
| Cc1ccccc1N1CCN(c2ccc(C(=O)NCCCN3C(=O)CCC3=O)cc2NC(=O)c2ccco2)CC1 [Compound 147] | 100 to 1000 nM |
| Cc1ccc(C(=O)Nc2cc(C(=O)NCCCN3CCCC3=O)ccc2N2CCN(c3ccccc3C(F)(F)F)CC2)o1 [Compound 246] | 1000 to 10000 nM |
| Cc1ccccc1N1CCN(c2ccc(C(=O)NCCCN3CCCC3=O)cc2NC(=O)c2ccc(Br)o2)CC1 [Compound 143] | 100 to 1000 nM |
| Cc1ccccc1N1CCN(c2ccc(C(=O)NCCCN3CCCC3=O)cc2NC(=O)c2ccco2)CC1 [Compound 2] | 1000 to 10000 nM |

Q) Reported EC50, compound Cc1ccccc1N1CCN(c2ccc(C(=O)NCCCN3CCCC3=O)cc2NC(=O)c2ccc(F)cc2)CC1 [Compound 31] : ____
A) 100 to 1000 nM

Q) Reported EC50, compound Cc1ccccc1N1CCN(c2ccc(C(=O)NCCCC3CCOC3)cc2NC(=O)c2ccco2)CC1 (stereo not shown) [Compound 158] : ____
A) 100 to 1000 nM

Q) Reported EC50, compound Cc1ccccc1N1CCN(c2ccc(C(=O)NCCCN3CCCC3=O)cc2NC(=O)c2ccccn2)CC1 [Compound 36] : ____
A) 100 to 1000 nM
